- Tested on: Bacillus amyloliquefaciens LN
- Type: cell-based
OBSERVABLE: Zone diameter of LN (mm)
Please give a number only; it is taken to be in mm.

Worked set:
{"columns": ["STRUCTURE SMILES STRING", "SYSTEM UNDER TEST", "Zone diameter of LN (mm)"],
 "data": [
  ["NC[C@H]1O[C@H](O[C@H]2[C@H](O)[C@@H](O[C@H]3O[C@H](CO)[C@@H](O)[C@H](N)[C@H]3O)[C@H](N)C[C@@H]2N)[C@H](O)[C@@H](O)[C@@H]1O", "Bacillus amyloliquefaciens LN", 34.0],
  ["C[C@@H](O)[C@H]1C(=O)N2C(C(=O)O)=C(SCCN=CN)C[C@H]12", "Bacillus amyloliquefaciens LN", 29.5],
  ["CN(C)[C@@H]1C(O)=C(C(N)=O)C(=O)[C@@]2(O)C(O)=C3C(=O)c4c(O)cccc4[C@@](C)(O)[C@H]3C[C@@H]12", "Bacillus amyloliquefaciens LN", 15.3]
]}

In the following, a different molecule is considered.
query: Item NCC[C@H](O)C(=O)N[C@@H]1C[C@H](N)[C@@H](O[C@H]2O[C@H](CN)[C@@H](O)[C@H](O)[C@H]2O)[C@H](O)[C@H]1O[C@H]1O[C@H](CO)[C@@H](O)[C@H](N)[C@H]1O has what recorded Zone diameter of LN?
result: 23.0

----------
- Tested on: Bacillus amyloliquefaciens LN
- Format: cell-based
Lab note: anything with Zone diameter of LN below 20 mm is marked y; values at 20 mm or higher are marked n.

For orientation, consider the following solved cases.
{"columns": ["COMPOUND", "CATEGORY LABEL"],
 "data": [
  ["Cc1onc(-c2ccccc2)c1C(=O)N[C@@H]1C(=O)N2[C@@H]1SC(C)(C)[C@@H]2C(=O)O [Oxacillin]", "y"],
  ["NC[C@H]1O[C@H](O[C@H]2[C@H](O)[C@@H](O[C@H]3O[C@H](CO)[C@@H](O)[C@H](N)[C@H]3O)[C@H](N)C[C@@H]2N)[C@H](N)C[C@@H]1O [Tobramycin]", "n"],
  ["CC1(C)S[C@@H]2[C@H](NC(=O)[C@H](N)c3ccccc3)C(=O)N2[C@H]1C(=O)O [Ampicillin]", "y"],
  ["CCn1cc(C(=O)O)c(=O)c2cc(F)c(N3CCNCC3)cc21 [Norfloxacin]", "n"],
  ["CC(=O)OCC1=C(C(=O)O)N2C(=O)[C@@H](NC(=O)Cc3cccs3)[C@H]2SC1 [Cephalothin]", "n"],
  ["CN[C@H](CC(C)C)C(=O)N[C@H]1C(=O)N[C@@H](CC(N)=O)C(=O)N[C@H]2C(=O)N[C@H]3C(=O)N[C@H](C(=O)N[C@H](C(=O)O)c4cc(O)cc(O)c4-c4cc3ccc4O)[C@H](O)c3ccc(c(Cl)c3)Oc3cc2cc(c3O[C@@H]2O[C@H](CO)[C@@H](O)[C@H](O)[C@H]2O[C@H]2C[C@](C)(N)[C@H](O)[C@H](C)O2)Oc2ccc(cc2Cl)[C@H]1O [Vancomycin]", "y"]
]}

query: For O=C1CN(/N=C/c2ccc([N+](=O)[O-])o2)C(=O)N1 [Nitrofurantoin] , is the recorded Zone diameter of LN below the cut-off of 20 mm?
result: y

query: Moving on to the next compound: O=C(N[C@H](CO)[C@H](O)c1ccc([N+](=O)[O-])cc1)C(Cl)Cl [Chloramphenicol]
result: n

query: Moving on to the next compound: Cn1nnnc1SCC1=C(C(=O)O)N2C(=O)[C@@H](NC(=O)[C@H](O)c3ccccc3)[C@H]2SC1 [Cefamandol]
result: n

query: Moving on to the next compound: CO[C@@]1(NC(=O)Cc2cccs2)C(=O)N2C(C(=O)O)=C(COC(N)=O)CS[C@@H]21 [Cefoxitin]
result: n

query: Moving on to the next compound: CC[C@H]1OC(=O)[C@H](C)[C@@H](O[C@H]2C[C@@](C)(OC)[C@@H](O)[C@H](C)O2)[C@H](C)[C@@H](O[C@@H]2O[C@H](C)C[C@H](N(C)C)[C@H]2O)[C@](C)(O)C[C@@H](C)C(=O)[C@H](C)[C@@H](O)[C@]1(C)O [Erythromycin]
result: n

query: Moving on to the next compound: [H]/N=C(/N)N[C@H]1[C@H](O)[C@@H](O)[C@H](O[C@@H]2O[C@@H](C)[C@](O)(C=O)[C@H]2O[C@@H]2O[C@@H](CO)[C@H](O)[C@@H](O)[C@@H]2NC)[C@@H](N/C(N)=N\[H])[C@@H]1O [Streptomycin]
result: y
